Data origin, for the record: paper PMC3934494

Would you kindly list Microsomal CLint Rat for each of these molecules?
Experiment: Microsomal stability
Assay type: in vitro ADME
Settings: rat microsomes, RTV −
Give bare numbers, in μL min^-1 mg^1.

- CC[C@H](C)CN(C[C@@H](O)[C@H](Cc1ccccc1)NC(=O)O[C@H]1CO[C@H]2OCC[C@H]21)S(=O)(=O)c1ccc2c(c1)OCO2 [10d]: 987
- CC[C@H](C)CN(C[C@@H](O)[C@H](Cc1ccccc1)NC(=O)O[C@H]1CO[C@H]2OCC[C@H]21)S(=O)(=O)c1ccc(OC)cc1 [10b]: 885

Next molecule, please.
In one line, give reported Microsomal CLint Rat of the entry CC[C@H](C)CN(C[C@@H](O)[C@H](Cc1ccccc1)NC(=O)O[C@H]1CO[C@H]2OCC[C@H]21)S(=O)(=O)c1ccc(N)cc1 [10a] . 129

====

Give measured Microsomal Stability (Avg. % Fraction Remaining) at 60 Minutes Rat for each item. Keep answers brief.
Experiment: Microsomal stability
Format: in vitro ADME
Settings: rat microsomes, 60 min, RTV −
One number for each entry, in %.

Study these solved cases before continuing.
- CC[C@H](C)CN(C[C@@H](O)[C@H](Cc1ccccc1)NC(=O)O[C@H]1CO[C@H]2OCC[C@H]21)S(=O)(=O)c1ccc2c(c1)OCO2 [10d]: 0
- CCC(CC)CN(C[C@@H](O)[C@H](Cc1ccccc1)NC(=O)O[C@H]1CO[C@H]2OCC[C@H]21)S(=O)(=O)c1ccc(OC)cc1 [11b]: 19
- CCC(CC)CN(C[C@@H](O)[C@H](Cc1ccccc1)NC(=O)O[C@H]1CO[C@H]2OCC[C@H]21)S(=O)(=O)c1ccc(CO)cc1 [11c]: 0
- CC[C@H](C)CN(C[C@@H](O)[C@H](Cc1ccccc1)NC(=O)O[C@H]1CO[C@H]2OCC[C@H]21)S(=O)(=O)c1ccc(N)cc1 [10a]: 9
- CCC(CC)CN(C[C@@H](O)[C@H](Cc1ccccc1)NC(=O)O[C@H]1CO[C@H]2OCC[C@H]21)S(=O)(=O)c1ccc2c(c1)OCO2 [11d]: 0
- CC[C@H](C)CN(C[C@@H](O)[C@H](Cc1ccccc1)NC(=O)O[C@H]1CO[C@H]2OCC[C@H]21)S(=O)(=O)c1ccc(OC)cc1 [10b]: 0

Using the record for CC[C@H](C)CN(C[C@@H](O)[C@H](Cc1ccccc1)NC(=O)O[C@H]1CO[C@H]2OCC[C@H]21)S(=O)(=O)c1ccc(CO)cc1 [10c] , state its measured Microsomal Stability (Avg. % Fraction Remaining) at 60 Minutes Rat. 0

====

Experiment: Microsomal stability
Assay type: in vitro ADME
Details: human microsomes, 30 min, RTV −
MEASUREMENT TYPE: Microsomal Stability (Avg. % Fraction Remaining) at 30 Minutes Human (%)
One number for each entry, in %.

Please state Microsomal Stability (Avg. % Fraction Remaining) at 30 Minutes Human for every molecule in the list that follows.
1. CC[C@H](C)CN(C[C@@H](O)[C@H](Cc1ccccc1)NC(=O)O[C@H]1CO[C@H]2OCC[C@H]21)S(=O)(=O)c1ccc(OC)cc1 [10b]
2. CCC(CC)CN(C[C@@H](O)[C@H](Cc1ccccc1)NC(=O)O[C@H]1CO[C@H]2OCC[C@H]21)S(=O)(=O)c1ccc(OC)cc1 [11b]
3. CCC(CC)CN(C[C@@H](O)[C@H](Cc1ccccc1)NC(=O)O[C@H]1CO[C@H]2OCC[C@H]21)S(=O)(=O)c1ccc(CO)cc1 [11c]
4. CC[C@H](C)CN(C[C@@H](O)[C@H](Cc1ccccc1)NC(=O)O[C@H]1CO[C@H]2OCC[C@H]21)S(=O)(=O)c1ccc(CO)cc1 [10c]
5. CCC(CC)CN(C[C@@H](O)[C@H](Cc1ccccc1)NC(=O)O[C@H]1CO[C@H]2OCC[C@H]21)S(=O)(=O)c1ccc2c(c1)OCO2 [11d]
6. CC[C@H](C)CN(C[C@@H](O)[C@H](Cc1ccccc1)NC(=O)O[C@H]1CO[C@H]2OCC[C@H]21)S(=O)(=O)c1ccc2c(c1)OCO2 [10d]

1: 0; 2: 0; 3: 0; 4: 0; 5: 0; 6: 9

Provide Microsomal Stability (Avg. % Fraction Remaining) at 30 Minutes Human value for the following molecule: CC[C@H](C)CN(C[C@@H](O)[C@H](Cc1ccccc1)NC(=O)O[C@H]1CO[C@H]2OCC[C@H]21)S(=O)(=O)c1ccc(N)cc1 [10a] 42
